The reported measurements were obtained from patent US20190233494A1.

Target: T1, RXFP1 receptor (endogenous, on OVCAR5 cells) (UniProt Q9HBX9 1-757, limits assumed)
T1 sequence (looked up): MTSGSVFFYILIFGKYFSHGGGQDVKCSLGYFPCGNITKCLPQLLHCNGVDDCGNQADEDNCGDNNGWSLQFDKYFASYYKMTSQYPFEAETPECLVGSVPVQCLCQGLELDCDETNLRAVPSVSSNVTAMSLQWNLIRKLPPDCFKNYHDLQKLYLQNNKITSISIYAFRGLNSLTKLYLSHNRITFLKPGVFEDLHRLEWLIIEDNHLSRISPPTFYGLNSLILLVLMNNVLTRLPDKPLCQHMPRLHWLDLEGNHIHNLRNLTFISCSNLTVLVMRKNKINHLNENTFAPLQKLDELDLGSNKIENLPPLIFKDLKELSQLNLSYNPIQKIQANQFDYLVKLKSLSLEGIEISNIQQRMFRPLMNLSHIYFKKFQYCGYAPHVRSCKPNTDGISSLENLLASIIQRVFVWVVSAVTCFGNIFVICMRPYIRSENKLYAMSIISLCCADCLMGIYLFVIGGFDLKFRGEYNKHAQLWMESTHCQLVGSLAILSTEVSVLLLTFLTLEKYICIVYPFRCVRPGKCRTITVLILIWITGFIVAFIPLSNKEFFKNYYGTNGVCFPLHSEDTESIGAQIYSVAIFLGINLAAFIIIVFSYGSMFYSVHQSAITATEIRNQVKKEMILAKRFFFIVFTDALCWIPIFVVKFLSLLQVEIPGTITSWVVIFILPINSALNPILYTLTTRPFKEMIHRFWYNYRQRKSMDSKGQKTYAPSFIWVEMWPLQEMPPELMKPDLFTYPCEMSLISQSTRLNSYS
Experiment: cell-based or functional assay
Starred links: 1 amine or outer side, 2 acyl side, 3 side chain; linkers in the order of their positions; H or OH if unused. Non-standard residues stand in square brackets, D forms with d. Groups on a side chain read outwards from the residue. *: point of attachment. TTDS = 4-[3-[2-[2-(3-aminopropoxy)ethoxy]ethoxy]propylamino]-4-oxo-butanoyl; γGlu = O=C(O)[C@H](CCC(=O)[*:2])N[*:1]; Palmitoyl = CCCCCCCCCCCCCCCC(=O)*; Myristoyl = CCCCCCCCCCCCCC(=O)*; αMeK = C[C@](N)(CCCCN)C(=O)O; Aib = CC(C)(N)C(=O)O
ENDPOINT NAME: EC50 (nM), OVCAR 5 cells (cAMP)
Numbers only, in nM.

>>> result("Ac-LEGREKVRAK(Ac)I[Aib][Aib]EGK([TTDS-TTDS-TTDS-γGlu-γGlu-γGlu-γGlu-Myristoyl])STFS[αMeK]RAK-NH2 [peptide of SEQ ID NO: 97]")
0.29

Turning now to a further binder:
stdin: I would be grateful if you could share the reported EC50 (nM), OVCAR 5 cells (cAMP) for Ac-LEGRERVRAK(Ac)I[Aib][Aib]EGK([TTDS-TTDS-TTDS-γGlu-γGlu-γGlu-Palmitoyl])STWS[Aib]RRK(Ac)-NH2 [peptide of SEQ ID NO: 55] .
stdout: 0.18
